Hey, just so you know, these numbers are from paper PMC10177590.

experimental-details: Bidirectional transport (Papp) across canine-colonoid-derived monolayers
Format: in vitro ADME, dog
assay-conditions: dog, pH 6.8, 0.04 mg/mL (58.4 μM), Dog colonoid, AP→BL pH 6.8/7.4, individual wells; read-out: Papp × 10^−6
measured-endpoint: Papp A→B at 120 min, 0.04 mg/mL
The answer consists of two parts: a number and, after it, its unit.

Entry COCCc1ccc(OCC(O)CNC(C)C)cc1 (stereo not shown) [Metoprolol] : reported Papp A→B at 120 min, 0.04 mg/mL = ?
16.8 ×10⁻⁶ cm/s

* * *

experimental-details: Bidirectional transport (Papp) across canine-colonoid-derived monolayers
Format: in vitro ADME, dog
assay-conditions: dog, pH 7.4, 1 mg/mL (3380 μM), Dog colonoid, AP→BL pH 7.4/7.4, individual wells; read-out: Papp × 10^−6
measured-endpoint: Papp A→B at 120 min, 1 mg/mL (×10⁻⁶ cm/s)
Give just the numeric value; ×10⁻⁶ cm/s need not be written.

Entry CC(C)NCC(O)COc1cccc2ccccc12 (stereo not shown) : reported Papp A→B at 120 min, 1 mg/mL = ?
12

* * *

experimental-details: Bidirectional transport (Papp) across canine-colonoid-derived monolayers
Type: in vitro ADME, dog
assay-conditions: dog, pH 7.4, 1 mg/mL (3380 μM), Dog colonoid, BL→AP pH 7.4/7.4, N = 2; read-out: Papp × 10^−6 Avg
measured-endpoint: Papp B→A at 120 min, 1 mg/mL (×10⁻⁶ cm/s)
Give just the numeric value; ×10⁻⁶ cm/s need not be written.

Entry CC(C)NCC(O)COc1cccc2ccccc12 (stereo not shown) [Propranolol] : reported Papp B→A at 120 min, 1 mg/mL = ?
11.5

* * *

Tested on: canine-colonoid-derived monolayers
experimental-details: Bidirectional transport (Papp) across canine-colonoid-derived monolayers
Format: in vitro ADME, dog
assay-conditions: 0.4 mg/mL (584.1 μM) ± FITC-dextran 200 µg/mL, Dog colonoid, AP→BL pH 6.8/7.4, individual wells; read-out: Papp × 10^−6
measured-endpoint: Papp A→B (×10⁻⁶ cm/s)
Give just the numeric value; ×10⁻⁶ cm/s need not be written.

Any idea what Papp A→B came out for COCCc1ccc(OCC(O)CNC(C)C)cc1 (stereo not shown) on canine-colonoid-derived monolayers?
9.1

* * *

experimental-details: Bidirectional transport (Papp) across Caco-2 cell monolayers
Format: in vitro ADME, human
assay-conditions: human, Caco-2, pH 7.4, 0.4 mg/mL (584.1 μM), Human Caco-2, BL→AP pH 7.4/7.4, individual wells; read-out: Papp × 10^−6
measured-endpoint: Papp B→A at 120 min, 0.4 mg/mL (nm/s)
Give just the numeric value; nm/s need not be written.

Entry COCCc1ccc(OCC(O)CNC(C)C)cc1 (stereo not shown) : reported Papp B→A at 120 min, 0.4 mg/mL = ?
138

* * *

experimental-details: Bidirectional transport (Papp) across canine-colonoid-derived monolayers
Assay type: in vitro ADME, dog
assay-conditions: dog, pH 7.4, 0.04 mg/mL (58.4 μM), Dog colonoid, AP→BL pH 7.4/7.4, individual wells; read-out: Papp × 10^−6
measured-endpoint: Papp A→B at 120 min, 0.04 mg/mL (×10⁻⁶ cm/s)
Give just the numeric value; ×10⁻⁶ cm/s need not be written.

Entry COCCc1ccc(OCC(O)CNC(C)C)cc1 (stereo not shown) : reported Papp A→B at 120 min, 0.04 mg/mL = ?
13.4

* * *

experimental-details: Bidirectional transport (Papp) across canine-colonoid-derived monolayers
Assay type: in vitro ADME, dog
assay-conditions: dog, pH 7.4, 0.04 mg/mL (58.4 μM), Dog colonoid, BL→AP pH 7.4/7.4, individual wells; read-out: Papp × 10^−6
measured-endpoint: Papp B→A at 120 min, 0.04 mg/mL
The answer consists of two parts: a number and, after it, its unit.

Entry COCCc1ccc(OCC(O)CNC(C)C)cc1 (stereo not shown) [Metoprolol] : reported Papp B→A at 120 min, 0.04 mg/mL = ?
11.2 ×10⁻⁶ cm/s

* * *

System: canine-colonoid-derived monolayers
experimental-details: Bidirectional transport (Papp) across canine-colonoid-derived monolayers
Assay type: in vitro ADME, dog
assay-conditions: 1 mg/mL (3380 μM), Dog colonoid, BL→AP pH 7.4/7.4, individual wells; read-out: Papp × 10^−6
measured-endpoint: Papp B→A

Entry CC(C)NCC(O)COc1cccc2ccccc12 (stereo not shown) : reported Papp B→A = ?
12 ×10⁻⁶ cm/s

* * *

experimental-details: Bidirectional transport (Papp) across canine-colonoid-derived monolayers
Assay type: in vitro ADME, dog
assay-conditions: dog, pH 6.8, 1 mg/mL (3380 μM), Dog colonoid, AP→BL pH 6.8/7.4, N = 2; read-out: Papp × 10^−6 Avg
measured-endpoint: Papp A→B at 120 min, 1 mg/mL (×10⁻⁶ cm/s)
Give just the numeric value; ×10⁻⁶ cm/s need not be written.

Entry CC(C)NCC(O)COc1cccc2ccccc12 (stereo not shown) : reported Papp A→B at 120 min, 1 mg/mL = ?
11.6

* * *

experimental-details: Bidirectional transport (Papp) across Caco-2 cell monolayers
Type: in vitro ADME, human
assay-conditions: human, Caco-2, pH 7.4, 1 mg/mL (3380 μM), Human Caco-2, BL→AP pH 7.4/7.4, individual wells; read-out: Papp × 10^−6
measured-endpoint: Papp B→A at 120 min, 1 mg/mL (×10⁻⁶ cm/s)
Give just the numeric value; ×10⁻⁶ cm/s need not be written.

Entry CC(C)NCC(O)COc1cccc2ccccc12 (stereo not shown) : reported Papp B→A at 120 min, 1 mg/mL = ?
11.4

* * *

experimental-details: Bidirectional transport (Papp) across canine-colonoid-derived monolayers
Assay type: in vitro ADME, dog
assay-conditions: dog, pH 7.4, 0.4 mg/mL (584.1 μM) ± FITC-dextran 200 µg/mL, Dog colonoid, AP→BL pH 7.4/7.4, individual wells; read-out: Papp × 10^−6
measured-endpoint: Papp A→B at 120 min, 0.4 mg/mL
The answer consists of two parts: a number and, after it, its unit.

Entry COCCc1ccc(OCC(O)CNC(C)C)cc1 (stereo not shown) : reported Papp A→B at 120 min, 0.4 mg/mL = ?
9.9 ×10⁻⁶ cm/s

* * *

Tested on: canine-colonoid-derived monolayers
experimental-details: Bidirectional transport (Papp) across canine-colonoid-derived monolayers
Type: in vitro ADME, dog
assay-conditions: 1 mg/mL (3380 μM), Dog colonoid, AP→BL pH 7.4/7.4, individual wells; read-out: Papp × 10^−6
measured-endpoint: Papp A→B (×10⁻⁶ cm/s)
Give just the numeric value; ×10⁻⁶ cm/s need not be written.

Any idea what Papp A→B came out for CC(C)NCC(O)COc1cccc2ccccc12 (stereo not shown) on canine-colonoid-derived monolayers?
12

* * *

experimental-details: Bidirectional transport (Papp) across Caco-2 cell monolayers
Assay type: in vitro ADME, human
assay-conditions: human, Caco-2, pH 6.8, 0.4 mg/mL (584.1 μM), Human Caco-2, AP→BL pH 6.8/7.4, individual wells; read-out: Papp × 10^−6
measured-endpoint: Papp A→B at 120 min, 0.4 mg/mL (×10⁻⁶ cm/s)
Give just the numeric value; ×10⁻⁶ cm/s need not be written.

Entry COCCc1ccc(OCC(O)CNC(C)C)cc1 (stereo not shown) : reported Papp A→B at 120 min, 0.4 mg/mL = ?
19.3

* * *

experimental-details: Bidirectional transport (Papp) across Caco-2 cell monolayers
Type: in vitro ADME, human
assay-conditions: human, Caco-2, pH 6.8, 1 mg/mL (3380 μM), Human Caco-2, AP→BL pH 6.8/7.4, N = 2; read-out: Papp × 10^−6 Avg
measured-endpoint: Papp A→B at 120 min, 1 mg/mL (×10⁻⁶ cm/s)
Give just the numeric value; ×10⁻⁶ cm/s need not be written.

Entry CC(C)NCC(O)COc1cccc2ccccc12 (stereo not shown) [Propranolol] : reported Papp A→B at 120 min, 1 mg/mL = ?
12.4

* * *

experimental-details: Bidirectional transport (Papp) across canine-colonoid-derived monolayers
Format: in vitro ADME, dog
assay-conditions: dog, pH 6.8, 1 mg/mL (3380 μM), Dog colonoid, AP→BL pH 6.8/7.4, individual wells; read-out: Papp × 10^−6
measured-endpoint: Papp A→B at 120 min, 1 mg/mL (nm/s)
Give just the numeric value; nm/s need not be written.

Entry CC(C)NCC(O)COc1cccc2ccccc12 (stereo not shown) : reported Papp A→B at 120 min, 1 mg/mL = ?
122

* * *

experimental-details: Bidirectional transport (Papp) across canine-colonoid-derived monolayers
Format: in vitro ADME, dog
assay-conditions: dog, pH 6.8, 0.04 mg/mL (58.4 μM), Dog colonoid, AP→BL pH 6.8/7.4, N = 2; read-out: Papp × 10^−6 Avg
measured-endpoint: Papp A→B at 120 min, 0.04 mg/mL
The answer consists of two parts: a number and, after it, its unit.

Entry COCCc1ccc(OCC(O)CNC(C)C)cc1 (stereo not shown) [Metoprolol] : reported Papp A→B at 120 min, 0.04 mg/mL = ?
17.7 ×10⁻⁶ cm/s
